- Test system: U937
- assay_protocol: Secondary dose-response HTS, Cell Titer Glo
- Assay type: cell-based, human
- run_parameters: Homo sapiens, U-937; secondary high-throughput screen; U937; read-out: average effective concentration, U937
Listed next: entries and their corresponding EC50.
Provide the reading as a plain figure in nM.

Consider the worked cases shown below.
• CC(C)Oc1ccc(C(=O)N[C@H](CNC(=O)CN(C)C)Cc2ccc(-c3cn4cccc([C@H](C)O)c4n3)cc2)cc1Cl = 1
• CC[C@]1(O)C[C@H]2CN(CCc3c([nH]c4ccccc34)[C@@](C(=O)OC)(c3cc4c(cc3OC)N(C=O)[C@H]3[C@@](O)(C(=O)OC)[C@H](OC(C)=O)[C@]5(CC)C=CCN6CC[C@]43[C@@H]65)C2)C1 = 35
• C=CC(=O)N1CCC[C@@H](n2nc(-c3ccc(Oc4ccccc4)cc3)c3c(N)ncnc32)C1 [Ibrutinib, reference compound] = 10000

Ask: Which EC50 is reported for this compound? Oc1ccc(C2=Cc3ccc(O)cc3OC2)cc1
Result: 1900
